Kindly state max response for each of the entries shown.
test system: HaCat; assay: Cytotoxic Profiling of Annotated Libraries Using Quantitative High-Throughput Screening (AID 1296008); conditions: Five cell lines viability, CellTiter-Glo ATP luminescence, 48-72 h; stronger effect = lower value; note: % is set by controls: 0 for no effect and ±100 for the full control effect
Results filed as inconclusive are left out.
# value in %; strip the unit string

**Q:** Entry CC(=O)O[C@@H]1c2c3c(cc(O)c2C(=O)O[C@@H]1C)O[C@@]1(C)[C@@H](O)C[C@H]2C(C)(C)C(=O)C=C[C@]2(C)[C@@H]1C3 : reported max response = ?
**A:** 3.68

**Q:** What does the data say about its max response? Entry: C/C=C1\[C@H](O[C@@H]2O[C@H](CO)[C@@H](O)[C@H](O)[C@H]2O)OC=C(C(=O)OC)[C@H]1CC(=O)OC[C@H]1O[C@@H](OCCc2ccc(O)cc2)[C@H](O)[C@@H](O)[C@@H]1O
**A:** -4.08

**Q:** Entry under review: O=C(O)[C@@H]1C[C@H]2C[C@@H](CCc3nn[nH]n3)CC[C@H]2CN1 . Reported max response?
**A:** 2.14

**Q:** Look at this molecule and give its reported max response. c1ccc(N2CCN(CCc3nn[nH]n3)CC2)cc1
**A:** -17.8

**Q:** Recorded max response for COc1ccc(-c2ccc(-c3cn(C(=O)N4CCCCC4c4ccccc4)nn3)cc2)cc1 (stereo not drawn) , please?
**A:** -8.43

**Q:** Fill blank: measured max response of the molecule O=C(Nc1ccc(S(=O)(=O)Nc2ccccc2Cl)c(Cl)c1)c1ccccn1 is ____.
**A:** -15.8

**Q:** Give its max response value. Item: COc1ccc(C(=O)n2c(C)c(Cc3cccc(O[C@@H](C)C(=O)O)c3)c3cc(OC(F)(F)F)ccc32)cc1
**A:** -6.22

**Q:** Given the molecule C=C1C(=O)O[C@H]2[C@H]1CC/C(C)=C/CC[C@@]1(C)O[C@@H]21 , what is its reported max response?
**A:** -3.65
